ASSAYED SYSTEM: 4H_GCN4
Sequence (chain, as listed by the source): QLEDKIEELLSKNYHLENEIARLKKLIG
TEST DESCRIPTION: two-hybrid library CCmax;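 note: natural log of median RNA to DNA barcode read ratio; higher means stronger binding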
RUN PARAMETERS: mean of both orientations
MEASURE NAME: interaction score

[[record]]
binder = "ASIRRLEQEVNQERSRMAYLQTLLAKIEQ [4H_BCR]"
measure_name = "interaction score"
reported_result = -1.7


1 = DENAALEAEIAALEAKIAALKAKIAALKG [4H1070-AA]
2 = DKIAALKAKIAALKAKNAALEAENAALEG [4H2931-AA]
Which shows the larger interaction score value: 1 or 2 ? Write the label of whichever entry you select. 1

a = DKIAALEAEIAALKAEIAALKAENAALKG [4H2124-AA]
b = DKNAALKAEIAALEAKIAALKAEIAALEG [4H3625-AA]
Which value of interaction score is smaller, the one for a or the one for b ? Write the label of whichever entry you select. a
